Recorded GI50, one value per entry.
- Test system: MDA-N
- experimental details: NCI tumour cell line growth inhibition, 48 h
Calls of active or inactive are those of the source. Rule as the data show it: active = GI50 up to about 1.1 µM and inactive = higher.

Example entries begin here.
1) Cc1cc(S(=O)(=O)N/C(=N/N)NCCc2ccccc2)c(S)cc1Cl : > 10 µM (inactive)
2) Cc1cc(C)n(-c2nc(-n3nc(C)cc3C)nc(-n3nc(C)cc3C)n2)n1 : > 100 µM (inactive)
3) COC(=O)C1=C(C(=O)OC)C(N(C)C)C(C(=O)OC)=C(C(=O)OC)S1 : > 100 µM (inactive)
4) COc1ccc2cc(/C=N/NC(=O)Nc3ccccc3)ccc2c1 : > 100 µM (inactive)

// next entry
For the compound shown here, `CCCCCC(=O)OC[n+]1cccc(-c2c(COC(=O)NC(C)C)c(COC(=O)NC(C)C)c3n2CCC3)c1` , give the reported GI50.
> 100 µM (inactive)

---

- System: A549
- experimental details: NCI tumour cell line growth inhibition, 48 h
Calls of active or inactive are those of the source. No stated cut-off is given here; in the data, active = GI50 up to about 1.1 µM and inactive = higher.
Please reply with one of these outcomes: active, inactive

These recorded examples may help you get a feel for the data.
1) Cc1ccc(-c2n[nH]c(=O)n2/N=C\c2ccccc2O)cc1 : inactive
2) CO/N=C1\CC(C)N2C(=O)C(C(C)C)NC(=O)C(NC(=O)c3c4nc5c(C(=O)NC6C(=O)NC(C(C)C)C(=O)N7C(C)CC(O)C7C(=O)N(C)CC(=O)N(C)C(C(C)C)C(=O)OC6C)ccc(C)c5oc-4c(C)c(=O)c3N)C(CO)OC(=O)C(C)N(C)C(=O)CN(C)C(=O)C12 (stereo not given) : active
3) CCOC(=O)C(Cc1cc(OC)c(CC(C(=O)OCC)C(=O)OCC)cc1OC)C(=O)OCC : inactive
4) COC(=O)/C(C#N)=C1\CCC(OC)N1 (stereo not given) : inactive
5) Nc1nc2cc(CNc3ccc(C(=O)O)cc3)ccc2nc1-c1ccccc1 : inactive
6) O=C(O)CCCCCO : inactive
7) CCCCCC/C(CC(=O)CCC(=O)NCCc1ccccc1)=N\NC(=O)c1ccc2ccccc2c1O : inactive
8) COc1cc(OC)cc(-n2c(N)c(-c3nc4ccccc4n3C)c3ccc([N+](=O)[O-])cc3c2=O)c1 : inactive
9) Cc1ccc(S(=O)(=O)N/N=C/c2c(O)ccc3ccccc23)cc1 : inactive

Then there is this compound:
Check the results log: what was the call for Cc1ccc(C2=Nc3c(N)nc(N)nc3NC(c3ccccc3)C2)cc1 (stereo not given) ?
inactive

---

Recorded GI50, one value per entry.
- Tested on: DMS-273
- experimental details: NCI tumour cell line growth inhibition, 48 h
The source made the active and inactive calls. Rule as the data show it: active = GI50 up to about 1.1 µM and inactive = higher.

Example entries begin here.
1. C=C1C(=O)C[C@@]23CCC[C@@]12CC(O)C3 (stereo partly drawn) : 17.3 µM (inactive)
2. O=C(O)CCCCCO : > 100 µM (inactive)
3. O=C(O)c1cc2c3c(c1)[C@H]1C=CC[C@H]1CN3CC1CC=CC21 (stereo partly drawn) : > 100 µM (inactive)

Query for DMS-273: what GI50 does the record show for `N#C/N=C(/N)NCN/C(N)=N\C#N` ?
58.9 µM (inactive)

Query for DMS-273: what GI50 does the record show for O=NN(CCCl)C(=O)NC1CCSc2ccccc21 (stereo not drawn) ?
> 100 µM (inactive)

Query for DMS-273: what GI50 does the record show for COc1ccc2nc(NC(=O)C(=O)C(C#N)c3ccc(Cl)c(Cl)c3)sc2c1 (stereo not drawn) ?
> 100 µM (inactive)

Query for DMS-273: what GI50 does the record show for O=C(CCC(=O)Nc1ccccc1C(F)(F)F)N/N=C1\C(=N\NC(=O)CCC(=O)Nc2ccccc2C(F)(F)F)C(c2ccc3c(c2)OCO3)Oc2ccccc21 (stereo not drawn) ?
5.58 µM (inactive)

Query for DMS-273: what GI50 does the record show for `O=c1c(Cl)c(Cl)cnn1CCCl` ?
5.27 µM (inactive)

Query for DMS-273: what GI50 does the record show for `COc1ccc2c3c([nH]c2c1CC=C(C)C)C(=O)C=C(C)C3=O` ?
> 25 µM (inactive)
